Assay: The selectivity was determined for chymotrypsin to that of chymase
Measured Attribute: Selectivity

Cc1cccc(-c2ncc(N)c(=O)n2CC(=O)NC(Cc2ccccc2)C(=O)C(F)(F)C(=O)NCc2ccccc2)c1 (centres undefined) :: 114

P. Nc1cnc(-c2ccc(F)cc2)n(CC(=O)NC(Cc2ccccc2)C(=O)C(F)(F)C(=O)NCc2ccccc2)c1=O (centres undefined)
Q. Cc1cccc(-c2ncc(N)c(=O)n2CC(=O)NC(Cc2ccccc2)C(=O)C(F)(F)C(=O)NCC(N)=O)c1 (centres undefined)
R. Cc1cccc(-c2ncc(N)c(=O)n2CC(=O)NC(Cc2ccccc2)C(=O)C(F)(F)C(=O)NCCC(=O)O)c1 (centres undefined)
In: Sort entries by Selectivity from minimum to maximum value. State the ranking by listing the labels in the requested order.
Out: P, R, Q

* * *

Biological target: Mast cell protease 9 (Mus musculus, UniProt O35164)
Sequence (O35164 whole entry): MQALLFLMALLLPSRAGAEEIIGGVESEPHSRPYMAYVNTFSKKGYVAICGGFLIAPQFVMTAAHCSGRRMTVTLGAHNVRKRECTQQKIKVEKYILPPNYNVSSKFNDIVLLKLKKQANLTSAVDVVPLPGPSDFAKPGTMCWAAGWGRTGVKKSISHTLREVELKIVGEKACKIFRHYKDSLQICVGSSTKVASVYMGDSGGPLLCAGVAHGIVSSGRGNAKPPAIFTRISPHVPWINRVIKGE
Measured Attribute: Ki (nM)
Expressed in nM, but write only the number.

In: Write down the reported Ki of Nc1cnc(-c2cccc(Cl)c2)n(CC(=O)NC(Cc2ccccc2)C(=O)C(F)(F)C(=O)NCc2ccccc2)c1=O (stereo unspecified) , test system: Mast cell protease 9 (Mus musculus, UniProt O35164).
Out: 1260

* * *

Assay: Maximum plasma concentration after oral administration to rats
Type: ADME, organism-based
Design: route oral
Details: rat
Measured Attribute: Cmax (ng/mL)
Expressed in ng/mL, but write only the number.

In: Looking for the measured Cmax of Nc1cnc(-c2cccc(Cl)c2)n(CC(=O)NC(Cc2ccccc2)C(=O)C(F)(F)C(=O)NCc2ccccc2)c1=O (stereo unspecified) , can you help?
Out: 1520

* * *

Assay: Plasma administration to rats
Type: ADME, organism-based
Settings: rat
Measured Attribute: clearance (mL/min/kg)
Expressed in mL/min/kg, but write only the number.

In: Looking for the measured clearance of Nc1cnc(-c2cccc(Cl)c2)n(CC(=O)NC(Cc2ccccc2)C(=O)C(F)(F)C(=O)NCc2ccccc2)c1=O (stereo unspecified) , can you help?
Out: 2.28

* * *

Assay: Bioavailability administered orally at a dose of 10 mg/kg to dogs
Assay type: ADME, organism-based, Canis lupus familiaris
Details: dog, in vivo, po, read-out: BA
Measured Attribute: bioavailability (%)
Expressed in %, but write only the number.

In: Looking for the measured bioavailability of Nc1cnc(-c2cccc(Cl)c2)n(CC(=O)NC(Cc2ccccc2)C(=O)C(F)(F)C(=O)NCc2ccccc2)c1=O (stereo unspecified) , can you help?
Out: 32

* * *

Experiment: Time to reach Cmax after oral administration to rats
Assay type: ADME, organism-based
Details: rat, in vivo
Measured Attribute: Tmax (h)
Expressed in h, but write only the number.

In: Looking for the measured Tmax of Nc1cnc(-c2cccc(Cl)c2)n(CC(=O)NC(Cc2ccccc2)C(=O)C(F)(F)C(=O)NCc2ccccc2)c1=O (stereo unspecified) , can you help?
Out: 1.3

Each recorded value in this set is attributed to ChEMBL document CHEMBL1134398.
